B1: Osa-1-4 twister ribozyme (parent)
chain: CCGCCUAACACUGCCAAUGCCGGUCCCAAGCCCGGAUAAAAGUGGAGGGGGCGG

- Variants of: B1
- PROTOCOL: self-cleavage, relative activity (ratio to wild type); higher = more cleavage; co-transcriptional
METRIC_NAME: self-cleavage
Give bare numbers.

- MUTATION_KEY: "C21U C32A"
  METRIC_NAME: "self-cleavage"
  VALUE_MEASURED: 0.09

Below is a list of variants. For each, state its recorded self-cleavage.
1. C26A G44U
2. A10C G50A

0.05
0.11
